- Tested on: RXF 393
- method.summary: NCI tumour cell line growth inhibition, 48 h
Active and inactive are the calls of the source. No stated cut-off is given here; in the data, active = GI50 up to about 1.1 µM and inactive = higher.
The reply should name one outcome from y = active, n = inactive

Please review the following examples before continuing.
In [3]: df
Out[3]:
                                   compound  category
0  COc1ccccc1Cn1c2c(c3cc(O)ccc31)C(=O)c1ccccc1C2=O         n
1         COc1cc(/C=C2\CCc3ccccc3C2=O)ccc1O         n
2                 COc1cc(CCN(C)C)cc(OC)c1OC         n
3         O=[N+]([O-])c1cccc2nccc(NCCCO)c12         n
4  Cc1ccc(/C=N\NC2c3cc(Cl)ccc3Nc3nc(O)nc(C)c32)cc1 (stereo not given)         n
5  Nc1cc2c(c3ccccc13)C(CCl)CN2C(=O)c1cc2cc(NC(=O)c3cc4ccccc4o3)ccc2[nH]1 (stereo not given)         y
6  CCN1C/C(=C\c2ccc(Cl)cc2)c2[nH]c(=O)c(C#N)c(-c3ccc(Cl)cc3)c2C1         n
7  c1cc(Sc2nc(Sc3ccncc3)nc(Sc3ccncc3)n2)ccn1         n
8  CCOC1Oc2ccccc2-c2nc(N)ncc21 (stereo not given)         n

Please examine the following record next.
QUERY: Hello, I am checking results. What call was entered for O=C1OC2(c3ccc(O)cc3Oc3cc(O)ccc32)c2c1c(-c1ccccc1)c(-c1ccccc1)c(-c1ccccc1)c2-c1ccccc1 ?
RESULT: n
